assayed_system: Hemagglutinin-neuraminidase (Human parainfluenza virus 1)
Sequence (Q06992 whole entry): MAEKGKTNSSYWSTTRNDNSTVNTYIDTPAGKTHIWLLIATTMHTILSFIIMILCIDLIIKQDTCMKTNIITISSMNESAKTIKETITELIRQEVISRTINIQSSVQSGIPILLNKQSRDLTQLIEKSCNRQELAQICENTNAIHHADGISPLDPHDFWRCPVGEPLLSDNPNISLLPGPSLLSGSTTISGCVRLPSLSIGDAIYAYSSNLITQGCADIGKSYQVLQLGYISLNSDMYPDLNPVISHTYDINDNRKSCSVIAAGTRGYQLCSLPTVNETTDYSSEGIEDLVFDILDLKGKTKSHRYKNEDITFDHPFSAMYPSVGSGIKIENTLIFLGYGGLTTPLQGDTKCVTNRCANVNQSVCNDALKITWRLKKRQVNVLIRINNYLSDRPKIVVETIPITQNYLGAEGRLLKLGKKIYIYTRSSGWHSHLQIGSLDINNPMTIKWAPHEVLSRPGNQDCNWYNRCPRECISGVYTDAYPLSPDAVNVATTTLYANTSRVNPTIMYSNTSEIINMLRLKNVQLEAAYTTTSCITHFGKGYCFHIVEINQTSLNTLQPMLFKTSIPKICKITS
pIC50: −log10 of the molar value.
reported_metric: pIC50

* CCN(CC)/C(CCO[C@H]1C=C(C(=O)O)O[C@@H]([C@H](O)[C@H](O)CO)[C@@H]1NC(C)=O)=N/S(C)(=O)=O | 2.82
* CC(=O)NC1[C@H](C(O)[C@H](O)CO)OC(C(=O)O)=C[C@@H]1O (single isomer, unassigned) | 3.52
* CC(=O)N[C@H]1[C@H]([C@H](O)[C@H](O)CO)OC(C(=O)O)=C[C@@H]1OCCC(=NC(C)C)NS(=O)(=O)c1ccc(C)cc1 | 2.11
* CC(=O)N[C@H]1[C@H]([C@H](O)[C@H](O)CO)OC(C(=O)O)=C[C@@H]1OCCC(=Nc1ccccc1)NS(C)(=O)=O | 3.10
* CCCc1ccc(C/C(=N/S(C)(=O)=O)N[C@H]2C=C(C(=O)O)O[C@@H]([C@H](O)[C@H](O)CO)[C@@H]2NC(C)=O)cc1 | 2.80
* CCN(CC)/C(CCO[C@H]1C=C(C(=O)O)O[C@@H]([C@H](O)[C@H](O)CO)[C@@H]1NC(C)=O)=N\S(=O)(=O)c1ccc(C)cc1 | 2.04
* CC(=O)N[C@H]1[C@H]([C@H](O)[C@H](O)CO)OC(C(=O)O)=C[C@@H]1N=C(Cc1ccccc1)NS(C)(=O)=O | 2.68
* CC(=O)N[C@H]1[C@H]([C@H](O)[C@H](O)CO)OC(C(=O)O)=C[C@@H]1N=C(CC1=CCCCC1)NS(C)(=O)=O | 2.82
* CC(=O)N[C@H]1[C@H]([C@H](O)[C@H](O)CO)OC(C(=O)O)=C[C@@H]1N=C(Cc1ccc(F)cc1)NS(C)(=O)=O | 2.80
* CC(=O)N[C@H]1[C@H]([C@H](O)[C@H](O)CO)OC(C(=O)O)=C[C@@H]1OCC/C(=N\S(=O)(=O)c1ccc(C)cc1)N(C(C)C)C(C)C | 2.32
* CC(=O)N[C@H]1[C@H]([C@H](O)[C@H](O)CO)OC(C(=O)O)=C[C@@H]1N=C(Cc1cccs1)NS(C)(=O)=O | 2.70
* CC(=O)N[C@H]1[C@H]([C@H](O)[C@H](O)CO)OC(C(=O)O)=C[C@@H]1N=C(C)NS(C)(=O)=O | 1.80
